System: BaF3 SVD (EGFR exon 20 SVD Ins D770_N771)
Assay: Ba/F3 cell viability (CellTiter-Glo), EGFR exon 20 SVD Ins D770_N771
Assay type: cell-based, murine
Conditions: Mus musculus, Ba/F3 EGFR exon 20 SVD Ins D770_N771, 72 hours
Excerpt: Cell lines are generated by transducing Ba/F3 cells with retroviruses containing vectors with EGFR WT, EGFR exon 20 NPG Ins D770_N771, EGFR exon 20 ASV Ins V769_D770, EGFR exon 20 SVD Ins D770_N771, or EGFR exon 20 FQEA Ins A763_V764 genes and a puromycin selection marker. Transduced cells are selected with puromycin for 7 days and are then be transferred into culture media without Interleukin 3 (IL3). EGFR WT cells are maintained with supplemental EGF. […]
pIC50: −log10 of the molar value.
readout_kind: pIC50

Example cases with answers are listed next.
For "COCCc1c[nH]c(=O)c2c(Nc3cccc(Cl)c3OC)c(-c3ccncc3F)[nH]c12" the compound record lists pIC50 as 6.00 to 7.00

Short answer for "COCCc1c[nH]c(=O)c2c(Nc3cccc(Cl)c3OC)c(-c3ccncn3)[nH]c12" : pIC50 was > 7.00

// field: pIC50; key: "COc1c(F)cccc1Nc1c(-c2ccnc(C)n2)[nH]c2c(CCO)c[nH]c(=O)c12" ; value = 6.00 to 7.00

Given item "COc1c(Cl)cccc1Nc1c(-c2ccnc(C)n2)[nH]c2c(CCO)c[nH]c(=O)c12" , the value recorded as its pIC50 is 6.00 to 7.00

With those in mind, consider the next compound.
Looking up "COCCc1c[nH]c(=O)c2c(Nc3cccc(F)c3OC)c(-c3ccnc(C)n3)[nH]c12" , I found its pIC50 recorded as 6.00 to 7.00

====

test system: BaF3 ASV (EGFR exon 20 ASV Ins V769_D770); test: Ba/F3 cell viability (CellTiter-Glo), EGFR exon 20 ASV Ins V769_D770; format: cell-based, murine; conditions: Mus musculus, Ba/F3 EGFR exon 20 ASV Ins V769_D770, 72 hours
pIC50: −log10 of the molar value.
readout_kind: pIC50

Sure, the documented pIC50 for COCCc1c[nH]c(=O)c2c(Nc3cccc(Cl)c3OC)c(-c3ccncc3F)[nH]c12 [Compound 3] is 6.00 to 7.00

Value of pIC50 reported for the molecule COCCc1c[nH]c(=O)c2c(Nc3cccc(Cl)c3OC)c(-c3ccncn3)[nH]c12 [Compound 2] is 6.00 to 7.00

Record COCCc1c[nH]c(=O)c2c(Nc3cccc(F)c3OC)c(-c3ccnc(C)n3)[nH]c12 [Compound 4] . Reported pIC50: 6.00 to 7.00

According to the records, this molecule COc1c(F)cccc1Nc1c(-c2ccnc(C)n2)[nH]c2c(CCO)c[nH]c(=O)c12 [Compound 6] displays pIC50 of ≤ 6.00

Turning to the following molecule.
In plain terms, COc1c(Cl)cccc1Nc1c(-c2ccnc(C)n2)[nH]c2c(CCO)c[nH]c(=O)c12 [Compound 5] has a documented pIC50 of 6.00 to 7.00

Taken from patent US20260297088A1.
